Item-by-item account of pIC50
test system: MCF7 breast cancer cells; experiment: Cell viability assay (MTT), MCF7; format: cell-based, human; conditions: 72 hrs treatment, 1 to 10 μM tested, MTT, ± SD; read-out: Observed IC50 for MCF7 breast cancer cells
pIC50 is a log-scale quantity: -log10 of the concentration expressed in molar.

CCc1c(Cl)c(O)c(Cl)c(O)c1C(=O)O[C@@H]1[C@@H](O)[C@@H](OC)[C@@H](OC/C2=C\C=C\CC(O)/C(C)=C/C(CC)C(O[C@@H]3OC(C)(C)[C@H]4OC(c5ccccc5C(F)(F)F)O[C@@H]4[C@@H]3OC(=O)C(C)C)/C(C)=C/C(C)=C/CC(C(C)O)OC2=O)O[C@H]1C (stereo partly drawn) [TB5, 2-trifluoromethylbenzylidene acetal] | 5.23
CCc1c(Cl)c(O)c(Cl)c(O)c1C(=O)O[C@@H]1[C@@H](O)[C@@H](OC)[C@@H](OC/C2=C\C=C\CC(O)/C(C)=C/C(CC)C(O[C@@H]3OC(C)(C)[C@H]4OC(c5cccc(O)c5)O[C@@H]4[C@@H]3OC(=O)C(C)C)/C(C)=C/C(C)=C/CC(C(C)O)OC2=O)O[C@H]1C (stereo partly drawn) [TB2, 3-hydroxylbenzylidene acetal] | 5.16

Proceed to the following item.
Exercise: Indicate its recorded pIC50; the compound in question is CCc1c(Cl)c(O)c(Cl)c(O)c1C(=O)O[C@@H]1[C@@H](O)[C@@H](OC)[C@@H](OC/C2=C\C=C\CC(O)/C(C)=C/C(CC)C(O[C@@H]3OC(C)(C)[C@H]4OC(c5cccc(OC)c5)O[C@@H]4[C@@H]3OC(=O)C(C)C)/C(C)=C/C(C)=C/CC(C(C)O)OC2=O)O[C@H]1C (stereo partly drawn) [TB3, 3-methoxylbenzylidene acetal]
Key: 5.15
